Reference for the values: paper PMC12621043

# experimentalSystem: UKL3A (ULK3A) (Homo sapiens, UniProt Q6PHR2)
# Construct: purchased in-house DSF kinase panel (SGC-style construct names; the trailing letter is the construct ID)
# Sequence (Q6PHR2 1-279): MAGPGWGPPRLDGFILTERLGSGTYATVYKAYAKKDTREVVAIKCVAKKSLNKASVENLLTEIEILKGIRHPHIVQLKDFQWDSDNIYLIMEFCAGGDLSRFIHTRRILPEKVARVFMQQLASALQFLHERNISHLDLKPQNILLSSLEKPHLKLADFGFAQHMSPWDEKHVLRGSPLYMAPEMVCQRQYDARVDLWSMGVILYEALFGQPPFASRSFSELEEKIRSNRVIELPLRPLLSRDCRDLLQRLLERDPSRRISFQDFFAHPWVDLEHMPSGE
# procedureDetails: DSF Tm panel
# Type: binding
# measurementSetup: 10 μM compound
Quick rule for you: ΔTm at 10 µM at 4 °C or higher means true (1), lower means false (0).

O=C(NCc1ccccc1)Nc1ccc2cc1OCCOCCNc1ccn3ncc-2c3n1 [compound 16]	true (1)

Prompt: Reported ΔTm at 10 µM reaches at least 4 °C for COc1cccc(CNC(=O)Nc2ccc3cc2OCCOCCNc2ccn4ncc-3c4n2)c1 [compound 30] ?
Completion: true (1)

Prompt: Could you verify whether the entry Cc1cc(Cl)ccc1CNC(=O)Nc1ccc2cc1OCCOCCNc1ccn3ncc-2c3n1 [compound 23] shows ΔTm at 10 µM of no less than 4 °C?
Completion: false (0)

Prompt: Please indicate if the recorded ΔTm at 10 µM for O=C(NCc1ccc(Cl)cc1)Nc1ccc2cc1OCCOCCNc1ccn3ncc-2c3n1 [compound 19] meets or exceeds 4 °C.
Completion: true (1)

Prompt: Kindly determine if ΔTm at 10 µM recorded for O=C(NCc1ccc(C(F)(F)F)cc1)Nc1ccc2cc1OCCOCCNc1ccn3ncc-2c3n1 [compound 28] is above or exactly 4 °C.
Completion: true (1)

Prompt: Reported ΔTm at 10 µM reaches at least 4 °C for Cc1cc(Br)ccc1CNC(=O)Nc1ccc2cc1OCCOCCNc1ccn3ncc-2c3n1 [compound 24] ?
Completion: false (0)

Prompt: Is ΔTm at 10 µM at least 4 °C? Consider CN1CCN(C(=O)Nc2ccc3cc2OCCOCCNc2ccn4ncc-3c4n2)CC1 [compound 35]
Completion: false (0)
